Across several studies, compounds have been characterized by their log10 IC50 on Dual specificity protein kinase CLK4 (Homo sapiens); a selection follows.
Sequence (Q9HAZ1 whole entry): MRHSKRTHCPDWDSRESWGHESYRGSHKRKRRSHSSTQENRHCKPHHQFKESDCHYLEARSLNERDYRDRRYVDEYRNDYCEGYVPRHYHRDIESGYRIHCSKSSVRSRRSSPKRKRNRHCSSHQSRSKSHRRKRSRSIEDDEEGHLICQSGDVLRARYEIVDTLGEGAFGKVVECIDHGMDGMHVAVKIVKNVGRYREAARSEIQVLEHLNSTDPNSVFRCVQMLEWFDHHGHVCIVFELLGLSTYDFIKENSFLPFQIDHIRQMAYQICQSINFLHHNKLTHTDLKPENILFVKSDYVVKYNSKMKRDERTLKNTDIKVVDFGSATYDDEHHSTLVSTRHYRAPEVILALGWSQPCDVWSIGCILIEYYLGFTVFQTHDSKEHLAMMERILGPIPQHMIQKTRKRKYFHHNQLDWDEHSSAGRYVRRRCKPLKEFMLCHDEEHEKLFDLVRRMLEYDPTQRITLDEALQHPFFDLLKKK
Scale type: logarithmic (base 10). Underlying IC50 unit: nM.

Lab note: need log10 IC50 for COC(=N)c1nc2ccc3ncnc(Nc4ccc(Cl)cc4Cl)c3c2s1 on Dual specificity protein kinase CLK4 (Homo sapiens), anyone have it? 1.77

Lab note: need log10 IC50 for CN1CCN(c2cnc(NC3=N/C(=C\c4ccc5ncsc5c4)C(=O)N3)cn2)CC1 on Dual specificity protein kinase CLK4 (Homo sapiens), anyone have it? 1.46

Lab note: need log10 IC50 for O=C1NC(NC2CCCCC2)=N/C1=C\c1ccc2[nH]cnc2c1 on Dual specificity protein kinase CLK4 (Homo sapiens), anyone have it? 1.57

Lab note: need log10 IC50 for c1cncc(CNc2ncnc3ccc(-c4ccc5c(c4)OCO5)cc23)c1 on Dual specificity protein kinase CLK4 (Homo sapiens), anyone have it? 2.00

Lab note: need log10 IC50 for CO[C@H]1Cc2ccccc2[C@H]1NC1=N/C(=C\c2ccc3ncsc3c2)C(=O)N1 (racemic) on Dual specificity protein kinase CLK4 (Homo sapiens), anyone have it? 2.00

Lab note: need log10 IC50 for CC(C)(C)NC(=O)OC12CC3CC(CC(NC4=N/C(=C\c5ccc6ncsc6c5)C(=O)N4)(C3)C1)C2 on Dual specificity protein kinase CLK4 (Homo sapiens), anyone have it? 1.04

Lab note: need log10 IC50 for COc1ccc2c3ccnc(Cl)c3n(CC#N)c2c1 on Dual specificity protein kinase CLK4 (Homo sapiens), anyone have it? 1.38

Lab note: need log10 IC50 for COc1cccc(-c2ccc3ncnc(NCc4cccc(C)c4)c3c2)c1 on Dual specificity protein kinase CLK4 (Homo sapiens), anyone have it? 3.05

Lab note: need log10 IC50 for CC(=O)OC12CC3CC(CC(NC4=N/C(=C\c5ccc6ncsc6c5)C(=O)N4)(C3)C1)C2 on Dual specificity protein kinase CLK4 (Homo sapiens), anyone have it? 1.28

Lab note: need log10 IC50 for CN1CCC(CNC2=N/C(=C\c3ccc4ncsc4c3)C(=O)N2)CC1 on Dual specificity protein kinase CLK4 (Homo sapiens), anyone have it? 3.18
